# System: 755483-174-R-J1-PDC complex spheroid growth, percent test/control;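 further: spheroids exposed to compounds for seven days before readout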
# run description: Anticancer human tumor 755483-174-R-J1-PDC patient-derived rhabdomyosarcoma cell line growth inhibition [Asc]; active means viability on the fitted dose curve at most 10% of control; inactive means the rest
# experimental parameters: second compound 0.0316 µM; first compound 3.16 µM
Possible outcomes: 1 = active, -1 = inactive

>>> class_name("O=C(c1cc(Cc2n[nH]c(=O)c3ccccc23)ccc1F)N1CCN(C(=O)C2CC2)CC1 + CNC(C)C(=O)NC1CN(S(=O)(=O)c2cccc(S(=O)(=O)N3CCC4CCC(C(=O)NC(c5ccccc5)c5ccccc5)N4C(=O)C(NC(=O)C(C)NC)C3)c2)CCC2CCC(C(=O)NC(c3ccccc3)c3ccccc3)N2C1=O")
-1
>>> class_name("C#Cc1c(F)ccc2cc(O)cc(-c3ncc4c(N5CC6CCC(C5)N6)nc(OCC56CCCN5CC(F)C6)nc4c3F)c12 (centres undefined) + CNC(C)C(=O)NC1CN(S(=O)(=O)c2cccc(S(=O)(=O)N3CCC4CCC(C(=O)NC(c5ccccc5)c5ccccc5)N4C(=O)C(NC(=O)C(C)NC)C3)c2)CCC2CCC(C(=O)NC(c3ccccc3)c3ccccc3)N2C1=O")
-1
>>> class_name("C=CC(=O)N1CCN(c2nc(=O)n(-c3c(C)ccnc3C(C)C)c3nc(-c4c(O)cccc4F)c(F)cc23)C(C)C1 (centres undefined) + CNC(C)C(=O)NC1CN(S(=O)(=O)c2cccc(S(=O)(=O)N3CCC4CCC(C(=O)NC(c5ccccc5)c5ccccc5)N4C(=O)C(NC(=O)C(C)NC)C3)c2)CCC2CCC(C(=O)NC(c3ccccc3)c3ccccc3)N2C1=O")
-1
>>> class_name("C=C(F)C(=O)N1CCN(c2nc(OCC3CCCN3C)nc3c2CCN(c2cccc4cccc(Cl)c24)C3)CC1CC#N (centres undefined) + CNC(C)C(=O)NC1CN(S(=O)(=O)c2cccc(S(=O)(=O)N3CCC4CCC(C(=O)NC(c5ccccc5)c5ccccc5)N4C(=O)C(NC(=O)C(C)NC)C3)c2)CCC2CCC(C(=O)NC(c3ccccc3)c3ccccc3)N2C1=O")
1

Ref: PubChem BioAssay AID1963434
